# assayText: Toxicity in sc dosed male white mouse
# Type: organism-based
# measurementSetup: in vivo
I'd appreciate it if you could supply LD50 values for the items below.

{"compound": "CC(C)[C@]12CC(=O)[C@H](C)[C@H]1C2", "LD50": "87.5 mg/kg"}
{"compound": "COc1ccc2c3c1O[C@H]1[C@@H](O)C=C[C@H]4[C@@H](C2)N(C)CC[C@@]341.Cl", "LD50": "270 mg/kg"}
{"compound": "CC1C(=O)C[C@]2(C(C)C)C[C@H]12 (mixture of isomers)", "LD50": "134 mg/kg"}
{"compound": "CC(C)[C@]12CC(=O)[C@@H](C)[C@H]1C2", "LD50": "442 mg/kg"}

Field: next compound
The compound identified as CCC(=O)C(CC(C)N(C)C)(c1ccccc1)c1ccccc1 (racemic) registered its LD50 at 44 mg/kg
